# credit: paper PMC12250965

- TARGET SYSTEM: rat intestinal sucrase (Rattus norvegicus)
- Construct: rat small intestinal brush border membrane vesicles were first prepared; from tissue; host or cells: rat small intestine, brush border membrane vesicles
- ASSAY PROTOCOL: In vitro α-glucosidase inhibition assay, rat intestinal sucrase
- Format: biochemical
Label 1.0 when IC50 < 200 nM; otherwise 0.0.

>>> category("OC[C@@H]1[C@@H](O)[C@H](O)C[Se@+]1C[C@@H](O)[C@H]1OC(c2ccc(Cl)cc2Cl)OC[C@H]1O (some centres unmarked) [20b]")
0.0
>>> category("N#Cc1ccccc1C1OC[C@@H](O)[C@@H]([C@H](O)C[Se@@+]2C[C@@H](O)[C@H](O)[C@H]2CO)O1 (some centres unmarked) [20p]")
0.0
>>> category("O=[N+]([O-])c1ccc(F)cc1C1OC[C@@H](O)[C@@H]([C@H](O)C[Se@@+]2C[C@@H](O)[C@H](O)[C@H]2CO)O1 (some centres unmarked) [20j]")
1.0
>>> category("OC[C@@H]1[C@@H](O)[C@H](O)C[Se@+]1C[C@@H](O)[C@H]1OC(c2cc(Cl)ccc2Cl)OC[C@H]1O.[Cl-] (some centres unmarked) [20c]")
1.0
>>> category("OC[C@@H]1[C@@H](O)[C@H](O)C[Se@@+]1C[C@@H](O)[C@H]1OC(c2ccccc2I)OC[C@H]1O (some centres unmarked) [20o]")
0.0
>>> category("OC[C@@H]1[C@@H](O)[C@H](O)C[Se@@+]1C[C@@H](O)[C@H]1OC(c2cccc3ccccc23)OC[C@H]1O (some centres unmarked) [20q]")
0.0
>>> category("OC[C@@H]1[C@@H](O)[C@H](O)C[Se@+]1C[C@@H](O)[C@H]1OC(c2ccc(Cl)c(Cl)c2)OC[C@H]1O (some centres unmarked) [20f]")
0.0
>>> category("OC[C@@H]1[C@@H](O)[C@H](O)C[Se@+]1C[C@@H](O)[C@H]1OC(c2cccc(F)c2Cl)OC[C@H]1O (some centres unmarked) [20d]")
0.0
>>> category("OC[C@@H]1[C@@H](O)[C@H](O)C[Se@+]1C[C@@H](O)[C@H]1OC(c2cc(C(F)(F)F)cc(C(F)(F)F)c2)OC[C@H]1O (some centres unmarked) [20i]")
0.0
>>> category("OC[C@@H]1[C@@H](O)[C@H](O)C[Se@+]1C[C@@H](O)[C@H]1OC(c2cccc(Br)c2)OC[C@H]1O (some centres unmarked) [20l]")
0.0
>>> category("OC[C@@H]1[C@@H](O)[C@H](O)C[Se@+]1C[C@@H](O)[C@H]1OC(c2ccccc2Br)OC[C@H]1O (some centres unmarked) [20k]")
1.0
>>> category("OC[C@@H]1[C@@H](O)[C@H](O)C[Se@+]1C[C@@H](O)[C@H]1OC(c2cc(F)ccc2Cl)OC[C@H]1O (some centres unmarked) [20e]")
0.0

----------
Recorded pIC50, one value per entry.
- TARGET SYSTEM: rat intestinal sucrase (Rattus norvegicus, UniProt P23739)
- Construct: rat small intestinal brush border membrane vesicles were first prepared; from tissue; host or cells: rat small intestine, brush border membrane vesicles
- Sequence (P23739 whole entry): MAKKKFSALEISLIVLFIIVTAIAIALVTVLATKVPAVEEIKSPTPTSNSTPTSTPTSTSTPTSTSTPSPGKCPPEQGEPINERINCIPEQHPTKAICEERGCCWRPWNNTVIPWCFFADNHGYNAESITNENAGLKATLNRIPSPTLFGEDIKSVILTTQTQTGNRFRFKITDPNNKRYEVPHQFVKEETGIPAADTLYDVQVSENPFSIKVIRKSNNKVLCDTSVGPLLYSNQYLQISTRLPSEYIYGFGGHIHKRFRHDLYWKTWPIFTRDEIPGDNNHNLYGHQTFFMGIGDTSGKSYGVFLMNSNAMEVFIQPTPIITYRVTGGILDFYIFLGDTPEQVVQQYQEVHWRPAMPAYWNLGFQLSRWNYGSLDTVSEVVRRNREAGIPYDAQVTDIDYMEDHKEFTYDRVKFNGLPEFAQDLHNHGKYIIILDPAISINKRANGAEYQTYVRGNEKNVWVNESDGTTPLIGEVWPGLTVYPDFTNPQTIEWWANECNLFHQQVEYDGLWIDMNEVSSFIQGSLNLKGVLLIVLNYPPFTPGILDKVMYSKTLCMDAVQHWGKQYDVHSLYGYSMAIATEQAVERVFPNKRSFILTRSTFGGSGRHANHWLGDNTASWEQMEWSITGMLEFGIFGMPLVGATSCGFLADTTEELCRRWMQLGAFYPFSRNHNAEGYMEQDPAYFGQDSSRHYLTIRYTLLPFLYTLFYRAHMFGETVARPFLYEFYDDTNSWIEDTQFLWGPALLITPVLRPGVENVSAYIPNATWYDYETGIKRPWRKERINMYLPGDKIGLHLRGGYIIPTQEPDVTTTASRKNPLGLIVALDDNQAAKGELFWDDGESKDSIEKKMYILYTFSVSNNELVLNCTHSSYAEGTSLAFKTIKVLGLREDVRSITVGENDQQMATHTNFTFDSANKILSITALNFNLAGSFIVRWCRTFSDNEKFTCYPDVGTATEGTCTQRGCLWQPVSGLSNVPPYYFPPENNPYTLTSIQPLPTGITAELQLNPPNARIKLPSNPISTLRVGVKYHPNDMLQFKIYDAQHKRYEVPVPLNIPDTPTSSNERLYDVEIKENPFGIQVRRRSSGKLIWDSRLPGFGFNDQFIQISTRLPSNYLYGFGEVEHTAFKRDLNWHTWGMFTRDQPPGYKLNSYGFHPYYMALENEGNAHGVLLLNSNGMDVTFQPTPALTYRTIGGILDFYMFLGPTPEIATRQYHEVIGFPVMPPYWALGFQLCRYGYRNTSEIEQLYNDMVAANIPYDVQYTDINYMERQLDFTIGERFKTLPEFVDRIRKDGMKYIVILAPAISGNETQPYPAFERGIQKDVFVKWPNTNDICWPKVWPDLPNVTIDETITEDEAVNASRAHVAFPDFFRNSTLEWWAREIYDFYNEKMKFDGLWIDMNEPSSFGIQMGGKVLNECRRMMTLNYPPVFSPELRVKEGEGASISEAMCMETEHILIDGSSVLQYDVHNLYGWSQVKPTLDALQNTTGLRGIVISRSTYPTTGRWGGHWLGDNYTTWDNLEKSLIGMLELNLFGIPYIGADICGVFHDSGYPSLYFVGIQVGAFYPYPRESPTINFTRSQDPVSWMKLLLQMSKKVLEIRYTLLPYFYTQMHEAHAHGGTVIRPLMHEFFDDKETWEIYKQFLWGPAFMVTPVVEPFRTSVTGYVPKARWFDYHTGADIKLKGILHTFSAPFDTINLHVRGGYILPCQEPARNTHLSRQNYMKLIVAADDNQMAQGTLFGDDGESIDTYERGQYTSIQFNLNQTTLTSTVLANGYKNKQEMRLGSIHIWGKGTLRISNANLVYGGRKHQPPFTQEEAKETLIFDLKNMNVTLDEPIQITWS
- ASSAY PROTOCOL: In vitro α-glucosidase inhibition assay, rat intestinal sucrase
- Assay type: biochemical
pIC50: −log10 of the molar value.
MEASURED PROPERTY: pIC50

>>> recorded_measurement("OC[C@@H]1[C@@H](O)[C@H](O)C[Se@+]1C[C@@H](O)[C@H]1OC(c2cc(Cl)cc(Cl)c2)OC[C@H]1O (stereo partly shown) [20g]")
6.66
>>> recorded_measurement("OC[C@@H]1[C@@H](O)[C@H](O)C[Se@+]1C[C@@H](O)[C@H]1OC(c2cccc(Cl)c2Cl)OC[C@H]1O.[Cl-] (stereo partly shown) [20a]")
6.72
>>> recorded_measurement("OC[C@@H]1[C@@H](O)[C@H](O)C[Se@+]1C[C@@H](O)[C@H]1OC(c2ccccc2-c2ccccc2)OC[C@H]1O (stereo partly shown) [20r]")
6.14
>>> recorded_measurement("OC[C@@H]1[C@@H](O)[C@H](O)C[Se@+]1C[C@@H](O)[C@H]1OC(c2cc(F)cc(Cl)c2)OC[C@H]1O (stereo partly shown) [20h]")
5.71

----------
- TARGET SYSTEM: rat intestinal maltase
- ASSAY PROTOCOL: In vitro α-glucosidase inhibition assay, rat intestinal maltase
- Format: biochemical
- RUN CONDITIONS: rat small intestinal brush border membrane vesicles; maltose substrate; mean ± SD (n = 3); read-out: IC50 against maltase
- Description: The testing method previously described was modified and used. Thus, rat small intestinal brush border membrane vesicles were first prepared, and its suspension in 0.1 M maleate buffer (pH = 6.0) was used as small intestinal α-glucosidases of maltase and sucrase. […] Glucose concentration was determined by the glucose-oxidase method. […] The IC50 value was determined graphically by a plot of percent inhibition versus log of the test compound.
pIC50: −log10 of the molar value.
pIC50 of 6 or higher: Satisfied. Under 6: Not satisfied.

>>> category("OC[C@@H]1[C@@H](O)[C@H](O)C[Se@+]1C[C@@H](O)[C@H]1OC(c2cc(F)ccc2Cl)OC[C@H]1O (some centres unmarked) [20e]")
"Satisfied"
>>> category("OCC1C(O)C(O)C[S+]1CC(O)C1OC(c2cc(C(F)(F)F)cc(C(F)(F)F)c2)OCC1O (centres unmarked) [19i]")
"Not satisfied"
>>> category("OC[C@@H]1[C@@H](O)[C@H](O)C[Se@+]1C[C@@H](O)[C@H]1OC(c2ccc(Cl)cc2Cl)OC[C@H]1O (some centres unmarked) [20b]")
"Satisfied"
>>> category("OCC1C(O)C(O)C[S+]1CC(O)C1OC(c2cccc3ccccc23)OCC1O (centres unmarked) [19q]")
"Not satisfied"
>>> category("OC[C@@H]1[C@@H](O)[C@H](O)C[Se@+]1C[C@@H](O)[C@H]1OC(c2ccccc2-c2ccccc2)OC[C@H]1O (some centres unmarked) [20r]")
"Not satisfied"
>>> category("OC[C@@H]1[C@@H](O)[C@H](O)C[Se@+]1C[C@@H](O)[C@H]1OC(c2ccccc2Br)OC[C@H]1O (some centres unmarked) [20k]")
"Satisfied"
>>> category("OCC1C(O)C(O)C[S+]1CC(O)C1OC(c2ccccc2I)OCC1O (centres unmarked) [19o]")
"Not satisfied"

----------
- TARGET SYSTEM: rat intestinal sucrase (Rattus norvegicus, UniProt P23739)
- Construct: rat small intestinal brush border membrane vesicles were first prepared; from tissue; host or cells: rat small intestine, brush border membrane vesicles
- ASSAY PROTOCOL: In vitro α-glucosidase inhibition assay, rat intestinal sucrase
- Type: biochemical
- RUN CONDITIONS: rat small intestinal brush border membrane vesicles; sucrose substrate; mean ± SD (n = 3); read-out: IC50 against sucrase
This section presents compounds with their documented log10 IC50 values.
MEASURED PROPERTY: log10 IC50 (log10 of the value in nM)

>>> recorded_measurement("OCC1C(O)C(O)C[S+]1CC(O)C1OC(c2ccccc2Br)OCC1O (centres unmarked) [19k]")
3.04
>>> recorded_measurement("O=[N+]([O-])c1ccc(F)cc1C1OCC(O)C(C(O)C[S+]2CC(O)C(O)C2CO)O1 (centres unmarked) [19j]")
3.18
>>> recorded_measurement("OCC1C(O)C(O)C[S+]1CC(O)C1OC(c2cc(Cl)ccc2Cl)OCC1O (centres unmarked) [19c]")
2.90
>>> recorded_measurement("OCC1C(O)C(O)C[S+]1CC(O)C1OC(c2cccc3ccccc23)OCC1O (centres unmarked) [19q]")
3.76
>>> recorded_measurement("OCC1C(O)C(O)C[S+]1CC(O)C1OC(c2ccc(Cl)c(Cl)c2)OCC1O (centres unmarked) [19f]")
3.66
>>> recorded_measurement("OCC1C(O)C(O)C[S+]1CC(O)C1OC(c2cc(F)cc(Cl)c2)OCC1O (centres unmarked) [19h]")
3.15
>>> recorded_measurement("OCC(CO)N[C@H]1C[C@](O)(CO)[C@@H](O)[C@H](O)[C@H]1O")
2.54
>>> recorded_measurement("OCC1C(O)C(O)C[S+]1CC(O)C1OC(c2cccc(Cl)c2Cl)OCC1O (centres unmarked) [19a]")
3.20
>>> recorded_measurement("OCC1C(O)C(O)C[S+]1CC(O)C1OC(c2cc(C(F)(F)F)cc(C(F)(F)F)c2)OCC1O (centres unmarked) [19i]")
4.00
>>> recorded_measurement("N#Cc1ccccc1C1OCC(O)C(C(O)C[S+]2CC(O)C(O)C2CO)O1 (centres unmarked) [19p]")
2.95
>>> recorded_measurement("OCC1C(O)C(O)C[S+]1CC(O)C1OC(c2cc(F)ccc2Cl)OCC1O (centres unmarked) [19e]")
3.82
>>> recorded_measurement("OCC1C(O)C(O)C[S+]1CC(O)C1OC(c2cccc(Br)c2)OCC1O (centres unmarked) [19l]")
3.90
>>> recorded_measurement("OCC1C(O)C(O)C[S+]1CC(O)C1OC(c2ccccc2F)OCC1O (centres unmarked) [19n]")
2.74
>>> recorded_measurement("OCC1C(O)C(O)C[S+]1CC(O)C1OC(c2ccccc2I)OCC1O (centres unmarked) [19o]")
3.52
>>> recorded_measurement("OC[C@@H]1[C@@H](O)[C@H](O)C[S@@+]1C[C@@H](O)[C@@H](O)[C@H](O)[C@@H](O)CO")
3.45
>>> recorded_measurement("OCC1C(O)C(O)C[S+]1CC(O)C1OC(c2cccc(F)c2Cl)OCC1O (centres unmarked) [19d]")
2.85
>>> recorded_measurement("OCC1C(O)C(O)C[S+]1CC(O)C1OC(c2ccccc2-c2ccccc2)OCC1O (centres unmarked) [19r]")
3.52
